Test system: Candida albicans A9540
Assay explanation: In vitro antifungal activity (MIC), agar dilution on yeast morphology agar
Type: cell-based
Assay setup: YMA, 0.06M phosphate (pH 7.0), 28°C, 40 hours, read-out: MIC Ca-4
Test readout: MIC (µg/mL)
Quick note: give the figure in µg/mL, leave out the unit.

Before answering, review these 3 worked examples.
1) Cc1cc2c(c(O)c1C(=O)NC(CO)C(=O)O)-c1c(cc3c(c1O)C(=O)c1cc(O)cc(O)c1C3=O)C(O)C2OC1OC(C)C(N(C)C)C(OC2OCC(O)C(O)C2O)C1O (centres unmarked) [IE, 11-O-Demethyl-BMS-181182]    6.3
2) CNC1C(C)OC(OC2c3cc(C)c(C(=O)NC(CO)C(=O)O)c(O)c3-c3c(cc4c(c3O)C(=O)c3cc(O)cc(O)c3C4=O)C2O)C(O)C1OC1OCC(O)C(O)C1O (centres unmarked) [ID, 11-O-Demethylpradimicin FA-1]    6.3
3) CN[C@@H]1[C@H](O[C@@H]2OC[C@@H](O)[C@H](O)[C@H]2O)[C@@H](O)[C@H](O[C@H]2c3cc(C)c(C(=O)N[C@H](C)C(=O)O)c(O)c3-c3c(cc4c(c3O)C(=O)c3cc(OC)cc(O)c3C4=O)[C@@H]2O)O[C@@H]1C [Pradimicin A, reference compound]    6.3

Lookup: So what's the measured MIC for this one? Cc1cc2c(c(O)c1C(=O)NCC(=O)O)-c1c(cc3c(c1O)C(=O)c1cc(OCCF)cc(O)c1C3=O)[C@H](O)[C@H]2O[C@@H]1O[C@H](C)[C@H](O)[C@H](O[C@@H]2OC[C@@H](O)[C@H](O)[C@H]2O)[C@H]1O [IIB]
Found: 3.1

Lookup: Next compound up: Cc1cc2c(c(O)c1C(=O)NC(CO)C(=O)O)-c1c(cc3c(c1O)C(=O)c1cc(O)cc(O)c1C3=O)C(O)C2OC1OC(C)C(O)C(OC2OCC(O)C(O)C2O)C1O (centres unmarked) [IF, 11-O-Demethyl-BMS-181184]
Found: 6.3

Lookup: Would you kindly repeat that for Cc1cc2c(c(O)c1C(=O)NCC(=O)O)-c1c(cc3c(c1O)C(=O)c1cc(N(C)C)cc(O)c1C3=O)[C@H](O)[C@H]2O[C@@H]1O[C@H](C)[C@H](O)[C@H](O[C@@H]2OC[C@@H](O)[C@H](O)[C@H]2O)[C@H]1O [IIJ] ?
Found: 12.5

Lookup: Would you kindly repeat that for Cc1cc2c(c(O)c1C(=O)NCC(=O)O)-c1c(cc3c(c1O)C(=O)c1cc(C#N)cc(O)c1C3=O)[C@H](O)[C@H]2O[C@@H]1O[C@H](C)[C@H](O)[C@H](O[C@@H]2OC[C@@H](O)[C@H](O)[C@H]2O)[C@H]1O [IIL, 11-Cyano-11-dexylosyloxy pradimicin T1] ?
Found: 12.5

Lookup: Here is the next compound: Cc1cc2c(c(O)c1C(=O)NCC(=O)O)-c1c(cc3c(c1O)C(=O)c1cc(C(N)=O)cc(O)c1C3=O)[C@H](O)[C@H]2O[C@@H]1O[C@H](C)[C@H](O)[C@H](O[C@@H]2OC[C@@H](O)[C@H](O)[C@H]2O)[C@H]1O [IIK]
Found: 12.5

* * *

Test system: Candida albicans A9540
Assay explanation: In vitro antifungal activity (MIC), agar dilution on yeast morphology agar
Assay type: cell-based
Assay setup: YMA, 0.06M phosphate (pH 7.0), 28°C, 40 hours, read-out: MIC Ca-4
Test readout: MIC (µg/mL)
Please reply with the bare figure in µg/mL and do not write the unit itself.

Lookup: Entry CCOc1cc(O)c2c(c1)C(=O)c1c(cc3c(c1O)-c1c(cc(C)c(C(=O)NCC(=O)O)c1O)[C@H](O[C@@H]1O[C@H](C)[C@H](O)[C@H](O[C@@H]4OC[C@@H](O)[C@H](O)[C@H]4O)[C@H]1O)[C@H]3O)C2=O has what MIC?
Found: 3.1
